# studySystem: T1, 4H2109-AA
# T1 chain: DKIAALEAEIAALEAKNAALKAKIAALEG
# runDescription: two-hybrid library CCmax;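 note: natural log of median RNA to DNA barcode read ratio; higher means stronger binding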
# experimentalParameters: mean of both orientations
// values below are reported interaction score
The answer should be written as a number, with no unit following it.

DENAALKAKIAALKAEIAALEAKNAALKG [4H1864-AA] : -0.599

Lab note: measured interaction score of DENAALEAKNAALKAEIAALEAKIAALKG [4H1478-AA] was -0.882

For record DENAALKAEIAALEAKNAALKAKIAALEG [4H1597-AA] the listed interaction score is -1.06
